Molecular target: T1, GST-hDM2 (residues 1-188) (human, UniProt Q00987 1-188)
T1 construct: also called human oncoprotein double minute two; not shown: glutathione S-transferase (GST) fusion partner
T1 sequence (Q00987 1-188): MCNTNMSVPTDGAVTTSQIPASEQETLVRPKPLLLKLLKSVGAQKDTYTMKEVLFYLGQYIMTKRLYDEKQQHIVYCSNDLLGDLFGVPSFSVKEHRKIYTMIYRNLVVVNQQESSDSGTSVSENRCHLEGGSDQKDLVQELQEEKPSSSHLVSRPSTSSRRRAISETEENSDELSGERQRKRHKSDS
Assay: competition with 10 nM p53AD-Flu for 400 nM GST-hDM2; fraction of p53AD-Flu bound at equilibrium
pKi: −log10 of the molar value.

Binder: GPSQPTYPGDDAPVEDLIRFKFLLQWYLLAL (designed binder, also called p3559) [pZutshi, as competitor (not labeled)]
pKi: 6.14
